Field: MEAN CORPUSCULAR HEMOGLOBIN. Provide a value for each of the compounds that follow.
Species on record: Rattus norvegicus
Test: DrugMatrix - Regimen: Daily Repeat
Type: toxicity, organism-based, Sprague-Dawley
Parameters: regimen Daily Repeat, gender Male, age 6-8 weeks
Conditions: in vivo, po, 2000 mg/kg, 72 h, tissue Blood, route oral GAVAGE, dose level High, time 3 day, vehicle .5 % CMC
Answers are plain numbers, in pg.

Sample records with MEAN CORPUSCULAR HEMOGLOBIN:
- COMPOUND: "CC(=O)O[C@]1(C(C)=O)CC[C@H]2[C@@H]3C=C(Cl)C4=CC(=O)CC[C@]4(C)[C@H]3CC[C@@]21C [CHLORMADINONE ACETATE]"
  MEAN CORPUSCULAR HEMOGLOBIN (pg): 25.93
- COMPOUND: "NCCCC[C@H](N[C@@H](CCc1ccccc1)C(=O)O)C(=O)N1CCC[C@H]1C(=O)O [LISINOPRIL ANHYDROUS]"
  MEAN CORPUSCULAR HEMOGLOBIN (pg): 23.43
- COMPOUND: "NCC(=O)O"
  MEAN CORPUSCULAR HEMOGLOBIN (pg): 22.77

Now, please, on to the next compound.
Input line: Tell us which MEAN CORPUSCULAR HEMOGLOBIN value is on record for CC(C)[C@H](N)C(=O)OCCOCn1cnc2c(=O)[nH]c(N)nc21
Output line: 25.3
